Each entry below carries its recorded Kd.
Molecular target: CBLC (Homo sapiens, UniProt Q9ULV8)
Construct: the DNA-tagged SH2 domain concentrations used in this study were <0.1 nM; made in house; host or cells: HEK293 (transient transfection; unpurified extract)
Sequence (Q9ULV8 219-321 limits assumed): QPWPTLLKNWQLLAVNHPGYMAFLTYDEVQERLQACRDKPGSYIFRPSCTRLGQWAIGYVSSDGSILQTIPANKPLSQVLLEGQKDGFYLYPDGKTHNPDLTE
Test: biochemical
Assay type: binding
Details: dose-response; read-out: KD
Dear colleague, please return just the value in µM, with no unit written.

Smiles	Test system	Reported metric	Recorded measurement
C/C(=C\C(=O)N[C@H](C(=O)N1CCC[C@H]1C(=O)N(c1ccccc1)c1ccc(I)cc1)C(C)(C)C)c1ccc(OP(=O)(O)O)cc1	CBLC (Homo sapiens, UniProt Q9ULV8)	Kd	1.8

Switching to the query record.
Prompt: If you can, please state the reported Kd value of CC(C)(C)[C@H](NC(=O)/C=C/c1ccc(OP(=O)(O)O)cc1)C(=O)N1CCC[C@H]1C(=O)N(c1ccccc1)c1ccc(I)cc1 .
Response: 2.8

Provenance of the data: paper PMC12951562
